measured.on: UniProt E7BLG4
assay.method.text: biochemical
Assay type: binding
stated.conditions: KD (µM) AlinCSP3, 1-NPN and protein at 2 µM, 50 mM Tris-HCl pH 7.4; KD calculated from IC50; mean of three measurements
assay.readout: Kd (µM)
Numeric only. Scale: µM

{"compound": "C=CC(=O)OCCCC [Butyl acrylate]", "unit.of.measure": "µM", "Kd": 40.2}

Query: For the compound CC1=CC=C(C(C)C)CC1 , give its reported Kd.
Reply: 45.5

Query: For the compound COC(=O)c1ccccc1O [Methyl salicylate] , give its reported Kd.
Reply: 11.8

* * *

measured.on: AlinCSP3 (Adelphocoris lineolatus, UniProt E7BLG4)
Sequence (E7BLG4 entry or part of it): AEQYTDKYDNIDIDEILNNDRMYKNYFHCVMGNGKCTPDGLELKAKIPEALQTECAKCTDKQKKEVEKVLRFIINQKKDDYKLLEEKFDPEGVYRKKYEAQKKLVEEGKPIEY
assay.method.text: biochemical
Format: binding
stated.conditions: KD (µM) AlinCSP3, 1-NPN and protein at 2 µM, 50 mM Tris-HCl pH 7.4; KD calculated from IC50; mean of three measurements
Below: a set of entries, each annotated with reported Kd.
Numeric only. Scale: µM

{"compound": "COC(=O)Cc1ccccc1 [Methyl phenylacetate]", "Kd (µM)": 22.2}

Query: Find the measured Kd of CCOC(=O)Cc1ccccc1 [Ethyl phenylacetate] with AlinCSP3 (Adelphocoris lineolatus, UniProt E7BLG4) as test system.
Reply: 24.4

Query: Find the measured Kd of CC/C=C\CCO [(Z)-3-Hexen-1-ol] with AlinCSP3 (Adelphocoris lineolatus, UniProt E7BLG4) as test system.
Reply: 16.3

Query: Find the measured Kd of c1ccc2[nH]ccc2c1 with AlinCSP3 (Adelphocoris lineolatus, UniProt E7BLG4) as test system.
Reply: 24.6

Query: Find the measured Kd of CCCCOC(C)=O [Butyl acetate] with AlinCSP3 (Adelphocoris lineolatus, UniProt E7BLG4) as test system.
Reply: 34.5

Query: Find the measured Kd of CCCCC(C)=O with AlinCSP3 (Adelphocoris lineolatus, UniProt E7BLG4) as test system.
Reply: 22.5
